- Tested on: HLA transgenic mice
- method summary: T cell response to Hcit peptides in HLA transgenic mice (screening, ex vivo ELISpot)
- Set-up: species or system mouse
- applied conditions: yes/no; Hcit peptide with CpG/MPLA
Where no end group is shown, it is not given here. [ ]: non-standard residue; d: D form. hCit = NC(=O)NCCCC[C@H](N)C(=O)O
property label: T cell response

> print(dat)
                                  substance         study.system  result
1  EIN-hcit-RTEMENEFVLI-hcit-hcit-DVDE (EIN[hCit]RTEMENEFVLI[hCit][hCit]DVDE) [Cyk8 182-202 Hcit]  HLA transgenic mice     Yes
2  LEQQN-hcit-MLET-hcit-WSLLQQQ-hcit-T (LEQQN[hCit]MLET[hCit]WSLLQQQ[hCit]T) [Cyk8 112-131 Hcit]  HLA transgenic mice     Yes
3  IGGVILFHETLYQ-hcit-ADDGRP (IGGVILFHETLYQ[hCit]ADDGRP) [Aldolase A 74-93 Hcit]  HLA transgenic mice     yes
